# tested-system: Adenosine receptors; A1 & A2a (Rattus norvegicus) (UniProt P25099+P30543)
# Sequence (P25099 whole entry, looked up): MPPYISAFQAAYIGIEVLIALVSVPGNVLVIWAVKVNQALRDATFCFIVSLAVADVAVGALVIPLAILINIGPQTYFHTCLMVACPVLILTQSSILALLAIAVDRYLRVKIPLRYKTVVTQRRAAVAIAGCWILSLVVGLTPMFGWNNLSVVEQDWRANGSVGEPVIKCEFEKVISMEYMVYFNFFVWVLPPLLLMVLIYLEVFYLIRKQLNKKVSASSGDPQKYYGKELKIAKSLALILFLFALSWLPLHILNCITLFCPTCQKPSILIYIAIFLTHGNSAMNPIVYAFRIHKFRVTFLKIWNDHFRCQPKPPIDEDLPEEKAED
# Sequence (P30543 whole entry, looked up): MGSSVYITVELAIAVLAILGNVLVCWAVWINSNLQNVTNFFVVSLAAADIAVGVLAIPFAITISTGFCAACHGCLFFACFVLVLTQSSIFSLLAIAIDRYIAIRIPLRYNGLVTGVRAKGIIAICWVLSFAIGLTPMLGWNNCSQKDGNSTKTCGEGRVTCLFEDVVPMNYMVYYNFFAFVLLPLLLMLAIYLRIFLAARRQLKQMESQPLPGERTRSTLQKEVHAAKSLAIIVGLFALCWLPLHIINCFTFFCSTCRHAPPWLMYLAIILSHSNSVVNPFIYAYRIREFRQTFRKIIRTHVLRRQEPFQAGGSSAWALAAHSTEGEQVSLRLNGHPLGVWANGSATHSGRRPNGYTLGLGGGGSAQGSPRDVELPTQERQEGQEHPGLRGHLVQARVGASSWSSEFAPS
# test-protocol: Selectivity for adenosine A2a and A1 receptors
# Assay type: protein assay
measure: Selectivity

O=C(O)c1sc(SCc2ccccc2)c2c1CCCC2=O ... 0.3
CCOC(=O)c1sc(SC(C)C)c2c1CCCC2=O ... 2.6

(1) CCOC(=O)c1sc(SC)c2c1CCCC2=O
(2) CCCSc1sc(C(=O)OCC)c2c1C(=O)CCC2
## Task Determine, for 1 and 2 , which has the greater value of Selectivity. Give the label under which the chosen entry appears.
## Result 2

(A) CCOC(=O)c1sc(SC)c2c1CCCC2O (centres undefined)
(B) CCCCSc1sc(C(=O)OCC)c2c1C(=O)CCC2
## Task Return label of the item with the larger Selectivity. Candidates: A , B . Mark your answer with the label of the selected entry.
## Result B

---

# tested-system: Adenosine receptors; A1 & A2a (Rattus norvegicus) (UniProt P25099+P30543)
# test-protocol: Selectivity for adenosine A2a and A1 receptors
# Assay type: protein assay
measure: Selectivity

Here's what some known entries look like.
CSc1sc(C(=O)NN)c2c1C=CCC2 ... > 1.9
CCOC(=O)c1sc(SCc2ccccc2)c2c1CC(C)(C)CC2=O ... > 17.6

Next up:
## Task Check the records and state Selectivity for CCOC(=O)c1sc(S(C)(=O)=O)c2c1CC(C)(C)CC2=O
## Result > 3.1
